The reader will find Ki measurements below, all made with UniProtKB P48039.
Sequence (P48039 whole entry): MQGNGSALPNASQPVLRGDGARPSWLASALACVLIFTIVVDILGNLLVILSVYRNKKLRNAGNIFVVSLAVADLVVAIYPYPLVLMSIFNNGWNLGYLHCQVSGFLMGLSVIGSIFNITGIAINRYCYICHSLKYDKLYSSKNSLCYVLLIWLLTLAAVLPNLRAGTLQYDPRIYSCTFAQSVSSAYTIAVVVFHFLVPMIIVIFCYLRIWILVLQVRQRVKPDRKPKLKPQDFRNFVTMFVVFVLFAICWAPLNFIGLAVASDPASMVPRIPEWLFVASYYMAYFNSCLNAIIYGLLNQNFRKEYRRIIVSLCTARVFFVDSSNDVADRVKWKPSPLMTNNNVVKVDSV
The reply should contain only the number, in nM.

Answered examples (4):
Return Ki measured with UniProtKB P48039 given this molecule: CCNC(=O)NC[C@@H]1C[C@H]1c1c(Cl)ccc2c1C[C@@H](CCCCc1ccccc1)O2 60

API: value(readout= Ki, system= UniProtKB P48039, query= O=C(NC[C@@H]1C[C@H]1c1cccc2c1C[C@@H](CCCCc1ccccc1)O2)C1CC1 ) 1

Notebook entry, UniProtKB P48039 assay: Ki of CCNC(=O)NCCCc1cccc2c1C[C@@H](CCCCc1ccccc1)O2 = ? 9

Find Ki (UniProtKB P48039) for the entry CC(=O)NC[C@@H]1C[C@H]1c1cccc2c1C[C@@H](CCCCc1ccccc1)O2 1

Turning now to a further record.
Which measured Ki belongs to CCC(=O)NCCCc1cccc2c1C[C@@H](CCCCc1ccccc1)O2 , tested on UniProtKB P48039? 1
